# experimentalSystem: PKC-theta (Homo sapiens, UniProt Q04759)
# Construct: His-tag; made in house; host or cells: baculovirus-infected Sf9 cells
# Sequence (Q04759 whole entry): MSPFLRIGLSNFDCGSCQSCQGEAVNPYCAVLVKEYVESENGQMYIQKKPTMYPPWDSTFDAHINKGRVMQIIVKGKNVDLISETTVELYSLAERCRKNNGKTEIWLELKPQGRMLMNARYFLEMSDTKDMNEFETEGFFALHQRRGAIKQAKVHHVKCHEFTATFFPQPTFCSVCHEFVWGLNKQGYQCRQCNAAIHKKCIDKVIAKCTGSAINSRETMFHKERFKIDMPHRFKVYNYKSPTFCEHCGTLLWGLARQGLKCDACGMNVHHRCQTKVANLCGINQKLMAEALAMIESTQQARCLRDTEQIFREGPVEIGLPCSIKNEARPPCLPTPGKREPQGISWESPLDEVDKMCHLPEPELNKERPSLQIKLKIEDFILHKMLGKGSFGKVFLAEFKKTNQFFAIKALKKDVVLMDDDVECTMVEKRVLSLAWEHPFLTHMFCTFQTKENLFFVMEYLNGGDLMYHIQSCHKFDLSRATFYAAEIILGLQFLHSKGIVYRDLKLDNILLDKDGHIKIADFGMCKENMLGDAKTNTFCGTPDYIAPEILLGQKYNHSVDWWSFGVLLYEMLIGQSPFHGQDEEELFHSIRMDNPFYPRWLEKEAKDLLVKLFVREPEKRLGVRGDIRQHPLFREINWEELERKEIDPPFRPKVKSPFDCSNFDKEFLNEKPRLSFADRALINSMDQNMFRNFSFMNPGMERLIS
# test: In vitro kinase assay: peptide phosphorylation by PKC-theta
# Format: biochemical
# experimentalConditions: peptide concentration 10 uM
measuredAttribute: phosphorylation by PKC theta
Reply with the value as a number alone.

Incoming: # returns recorded phosphorylation by PKC theta (system: PKC-theta (Homo sapiens, UniProt Q04759)) for 122 (RAITSTLASSFKRRR) [compound 122]
Outgoing: 42

Incoming: # returns recorded phosphorylation by PKC theta (system: PKC-theta (Homo sapiens, UniProt Q04759)) for 146 (QAQRQIKRGAPPRRSSIRNA) [compound 146]
Outgoing: 34

Incoming: # returns recorded phosphorylation by PKC theta (system: PKC-theta (Homo sapiens, UniProt Q04759)) for 126 (KAIKAIEGGQKFARKSTRRS) [compound 126]
Outgoing: 45

Incoming: # returns recorded phosphorylation by PKC theta (system: PKC-theta (Homo sapiens, UniProt Q04759)) for 130 (EYLERRASRRRAV) [compound 130]
Outgoing: 44

Incoming: # returns recorded phosphorylation by PKC theta (system: PKC-theta (Homo sapiens, UniProt Q04759)) for 124 (PRLIRRGSKKRPAR) [compound 124]
Outgoing: 57

Incoming: # returns recorded phosphorylation by PKC theta (system: PKC-theta (Homo sapiens, UniProt Q04759)) for 120 (AKRRRLSSLRASTSK) [compound 120]
Outgoing: 51

Incoming: # returns recorded phosphorylation by PKC theta (system: PKC-theta (Homo sapiens, UniProt Q04759)) for 114 (KKKKRASFKRKSSKKG) [compound 114]
Outgoing: 86

Incoming: # returns recorded phosphorylation by PKC theta (system: PKC-theta (Homo sapiens, UniProt Q04759)) for 135 (KKKFRTPSFLKKSKK) [compound 135]
Outgoing: 36

Incoming: # returns recorded phosphorylation by PKC theta (system: PKC-theta (Homo sapiens, UniProt Q04759)) for 154 (KKFFTQGWAGWRKKTSFRKP) [compound 154]
Outgoing: 21

Incoming: # returns recorded phosphorylation by PKC theta (system: PKC-theta (Homo sapiens, UniProt Q04759)) for 118 (RPQNTLKASKKKKRASFKRK) [compound 118]
Outgoing: 52

Incoming: # returns recorded phosphorylation by PKC theta (system: PKC-theta (Homo sapiens, UniProt Q04759)) for 153 (TYLLPDKSRQGKRKTSIKRD) [compound 153]
Outgoing: 18

Incoming: # returns recorded phosphorylation by PKC theta (system: PKC-theta (Homo sapiens, UniProt Q04759)) for 125 (PLKEKKRERKTSSKSSVRKR) [compound 125]
Outgoing: 100

###

# experimentalSystem: PKC-theta (Homo sapiens)
# Construct: His-tag; made in house; host or cells: baculovirus-infected Sf9 cells
# test: In vitro kinase assay: peptide phosphorylation by PKC-theta
# Format: biochemical
# experimentalConditions: peptide concentration 1 uM
measuredAttribute: phosphorylation by PKC theta
Reply with the value as a number alone.

Incoming: Which phosphorylation by PKC theta is reported for this substance? 138 (EYLERRASRRRAV) [compound 138]
Outgoing: 34

Incoming: Which phosphorylation by PKC theta is reported for this substance? 121 (LRRRSLRRSNSISKSPGP) [compound 121]
Outgoing: 51

Incoming: Which phosphorylation by PKC theta is reported for this substance? 150 (VDPFYEMLAARKKRISVKKK) [compound 150]
Outgoing: 35

Incoming: Which phosphorylation by PKC theta is reported for this substance? 145 (ISDFGLAKKLAVGRHSFSRR) [compound 145]
Outgoing: 27

Incoming: Which phosphorylation by PKC theta is reported for this substance? 128 (QQVDRERPHVRRRRGTFKRS) [compound 128]
Outgoing: 41

Incoming: Which phosphorylation by PKC theta is reported for this substance? 136 (RARRDSLKKIEIW) [compound 136]
Outgoing: 42

Incoming: Which phosphorylation by PKC theta is reported for this substance? 154 (KKFFTQGWAGWRKKTSFRKP) [compound 154]
Outgoing: 34

Incoming: Which phosphorylation by PKC theta is reported for this substance? 163 (PPRTPGWHQLQPRRVSFRGE) [compound 163]
Outgoing: 14

Incoming: Which phosphorylation by PKC theta is reported for this substance? 142 (ERHVAQKKSRLRRRASQLKI) [compound 142]
Outgoing: 28

Incoming: Which phosphorylation by PKC theta is reported for this substance? 144 (LSSMFGTLPRKSRKGSVRKQ) [compound 144]
Outgoing: 35

Incoming: Which phosphorylation by PKC theta is reported for this substance? 166 (MAQIERGEARIQRRISIKKA) [compound 166]
Outgoing: 13
